# Tested on: HOP-92
# Procedure summary: NCI tumour cell line growth inhibition, 48 h
Active and inactive are the calls of the source. Rule as the data show it: active = GI50 up to about 1.1 µM and inactive = higher.
# key: entry, value: GI50

>>> measured_result("CCOC(=O)Nc1nc(-c2ccccc2)c(C)s1")
"11.7 µM (inactive)"

-- ask Need GI50 of `COc1ccc(NC(=O)CC(=O)n2nc(-c3ccccc3)c(/N=N/c3ccccc3C(=O)O)c2-c2ccccc2)cc1` , thanks.
-- reply 18.5 µM (inactive)

-- ask Need GI50 of `Oc1c(Br)cc(/C=C/c2cccc(/C=C/c3cc(Br)c(O)c(Br)c3)n2)cc1Br` , thanks.
-- reply 12.1 µM (inactive)

-- ask Need GI50 of COc1cc(S(=O)(=O)Nc2nc(-c3ccc(N4C(=O)C(CC(=O)O)SC4c4ccccc4O)cc3)cs2)ccc1Cl (stereo not given) , thanks.
-- reply 31 µM (inactive)

-- ask Need GI50 of [N-]=[N+]=CC(=O)CCC(N)C(=O)O (stereo not given) , thanks.
-- reply 13.8 µM (inactive)

###

# System: MDA-N
# Procedure summary: NCI tumour cell line growth inhibition, 48 h
Calls of active or inactive are those of the source. No stated cut-off is given here; in the data, active = GI50 up to about 1.1 µM and inactive = higher.
Outcome (select one): active, inactive

Solved cases below.
>>> group("Cc1ccnc(NS(=O)(=O)c2ccc(N=[N+]=[N-])cc2)n1")
"inactive"
>>> group("COc1ccc(/C(Cl)=C(\\C=O)c2cc(OC)c(OC)c(OC)c2)cc1OC")
"inactive"
>>> group("CCCCOCOc1ccccc1P1(=O)COc2ccccc2OC1")
"inactive"
>>> group("CCO[C@H]1C[C@@H](c2ccccc2)[C@]2(C)C[C@H](C(=O)OC)ON2O1")
"inactive"

-- ask How did this test come out for `c1cc(C[S+]2CCCC2)oc1C[S+]1CCCC1` ?
-- reply inactive

-- ask How did this test come out for `CO[C@H]1[C@@H](O)[C@@H](O)O[C@@H](O[C@H]2CC[C@@]3(C)[C@H](CC[C@@H]4[C@@H]3[C@H](O)C[C@]3(C)[C@@H](C5=CC(=O)OC5)CC[C@]43O)C2)[C@@H]1O` ?
-- reply active

-- ask How did this test come out for `COC(=O)Nc1nc2cc(Oc3ccc4nc(NC(=O)OC)[nH]c4c3)ccc2[nH]1` ?
-- reply active

-- ask How did this test come out for `NNC(=O)CCSc1ccccc1` ?
-- reply inactive

-- ask How did this test come out for CC(=O)C1COC(O)C1C (stereo not given) ?
-- reply inactive

-- ask How did this test come out for `CCCCNC(=S)Nc1nc(C(=O)NNC(=S)Nc2ccccc2)cs1` ?
-- reply inactive

###

# System: CCRF-CEM
# Procedure summary: NCI tumour cell line growth inhibition, 48 h
Activity calls are given as the source filed them. Rule as the data show it: active = GI50 up to about 1.1 µM and inactive = higher.
Quantity: GI50

>>> measured_result("O=C(CSCC(=O)N/N=C\\c1ccc(O)c(O)c1O)N/N=C\\c1ccc(O)c(O)c1O")
"1.73 µM (inactive)"
>>> measured_result("C1CNCCNCCNCCN1")
"> 100 µM (inactive)"
>>> measured_result("COC(=O)C(C#CCCCCC#CC(NC(=O)OCc1ccccc1)(C(=O)OC)C(F)(F)F)(NC(=O)OCc1ccccc1)C(F)(F)F (configuration not stated)")
"> 100 µM (inactive)"
>>> measured_result("COc1ccc2c(C(=O)O)cc3cc(OC)c(OC)cc3c2c1")
"> 100 µM (inactive)"
>>> measured_result("Cc1cc2ncc3c(=O)n(NS(=O)(=O)c4ccc(N)cc4)ccc3n2n1")
"> 100 µM (inactive)"
>>> measured_result("FC1OC2OC1C(OCc1ccccc1)C(OCc1ccccc1)C2OCc1ccccc1 (configuration not stated)")
"26.6 µM (inactive)"

Lab note: next compound to report on.
-- ask Need GI50 of `CN(C)/C=N/n1c2ccccc2c2ccccc21` , thanks.
-- reply > 100 µM (inactive)

###

# System: IGROV-1
# Procedure summary: NCI tumour cell line growth inhibition, 48 h
Active and inactive are the calls of the source. Cut-off read from the data, not from the text of the source: active = GI50 up to about 1.1 µM and inactive = higher.
Outcome (select one): true for active, false for inactive

>>> group("c1c[nH]c(CN2CCOCC2)n1")
"false"
>>> group("S=C=Nc1ccc(CSc2nc3ccccc3[nH]2)cc1")
"false"
>>> group("Cc1ccc(/C=C2\\CN(C)CC3C2=NN(c2ccccc2)C3c2ccc(C)cc2)cc1 (centres undefined)")
"false"
>>> group("COC(=O)C(C#CCCCCC#CC(NC(=O)OCc1ccccc1)(C(=O)OC)C(F)(F)F)(NC(=O)OCc1ccccc1)C(F)(F)F (centres undefined)")
"false"
>>> group("O=C(C=P(c1ccccc1)(c1ccccc1)c1ccccc1)C12CC3CC(CC(C3)C1)C2")
"false"
>>> group("CC(=O)[C@@]1(O)CC[C@H]2[C@@H]3C[C@H](C)C4=CC(=O)C=C[C@]4(C)[C@@]3(F)[C@@H](O)C[C@@]21C")
"false"
>>> group("Cc1cc(NCCCCCCCCCC[n+]2c(C)cc(N)c3ccccc32)c2ccccc2n1")
"true"
>>> group("COC(=O)[C@@H]1CN(C(C)=O)C(=O)N1C(=O)OCc1ccccc1")
"false"

Please examine the following record next.
-- ask How did this test come out for `Cc1ccc(-c2cc(=O)c3cc(C)c(C)c(C(=O)O)c3o2)cc1[N+](=O)[O-]` ?
-- reply false

###

# key: entry, value: GI50
# Test system: HT-29
# Procedure summary: NCI tumour cell line growth inhibition, 48 h
Active and inactive are the calls of the source. Cut-off read from the data, not from the text of the source: active = GI50 up to about 1.1 µM and inactive = higher.

-- ask Need GI50 of CSCCC(NOC(=O)Cc1ccccc1)P(=O)(O)c1ccccc1 (stereo not drawn) , thanks.
-- reply > 100 µM (inactive)

-- ask Need GI50 of COC(=O)[C@@H]1[C@H](OC(C)=O)CCC2[C@@]3(C[C@@H](c4ccoc4)O[C@@H]3OC)[C@H](C)CC[C@]21C(=O)OC (stereo partly drawn) , thanks.
-- reply > 25 µM (inactive)

-- ask Need GI50 of `Clc1ccc(CCNC2(c3cc4ccccc4s3)CCCCC2)cc1Cl` , thanks.
-- reply 10 µM (inactive)

-- ask Need GI50 of `CC(C)CCn1c(=O)c2c(=O)[nH][nH]c2c2ccccc21` , thanks.
-- reply > 100 µM (inactive)

-- ask Need GI50 of CC1CC(C)CC(NC2=NCCO2)C1 (stereo not drawn) , thanks.
-- reply > 100 µM (inactive)

-- ask Need GI50 of `COC(=O)[C@@H](O)[C@]1(C(=O)OC)C2O[C@@H](OC)[C@@H]1CCCCCC[C@H]2O` , thanks.
-- reply > 100 µM (inactive)

-- ask Need GI50 of `c1ccc2c(c1)c(N1CCCCC1)cc1nc3c(cc(N4CCCCC4)c4ccccc43)nc12` , thanks.
-- reply > 100 µM (inactive)

-- ask Need GI50 of O=C(Nc1cccc([N+](=O)[O-])c1)C(=O)C(C(=O)c1ccccc1-c1ccccc1)C1OC(=O)c2ccccc21 (stereo not drawn) , thanks.
-- reply 38.8 µM (inactive)

-- ask Need GI50 of `CCC/N=C/c1c(O)c(O)c(C(C)C)c2cc(C)c(-c3c(C)cc4c(C(C)C)c(O)c(O)c(/C=N/CCC)c4c3O)c(O)c12` , thanks.
-- reply 4.04 µM (inactive)

-- ask Need GI50 of `[O-][n+]1onc2c1/C(=N/O)CCC2` , thanks.
-- reply > 100 µM (inactive)

-- ask Need GI50 of CC(=O)Oc1c2c(c(O)c3ccccc13)C(n1cnc3c(ncn3C3OC(CO)C4OC(C)(C)OC43)c1=N)CCC2 (stereo not drawn) , thanks.
-- reply 13.2 µM (inactive)

-- ask Need GI50 of O=C1OC(C2Cc3ccc4c(c3C2=O)CCC4)c2ccccc21 (stereo not drawn) , thanks.
-- reply 52.8 µM (inactive)

-- ask Need GI50 of `c1ccc(-c2nnc(CCCCCCCCc3nnc(-c4ccccc4)o3)o2)cc1` , thanks.
-- reply 45.1 µM (inactive)

-- ask Need GI50 of COC(=O)[C@@]12C(=O)CCC(=O)C1C1C(=CC2C)O[C@@H]2OC3(CCCCC3)O[C@H]12 (stereo partly drawn) , thanks.
-- reply 47.6 µM (inactive)

-- ask Need GI50 of CC(=O)NC1C(OCc2ccccc2)OC(CO)C(O)C1OCC(=O)N1CCCC1C(=O)NC(CCC(=O)NCCCCCNc1c2ccccc2nc2cccc([N+](=O)[O-])c12)C(N)=O (stereo not drawn) , thanks.
-- reply 0.00125 µM (active)

-- ask Need GI50 of CCNC(=O)C(C)C1CCC2(C)C=CC(=O)C(C)=C2C1O (stereo not drawn) , thanks.
-- reply > 100 µM (inactive)

-- ask Need GI50 of `C[Si](C)(C)C1(Sc2ccccc2)SCCCS1` , thanks.
-- reply 38.5 µM (inactive)

-- ask Need GI50 of CC(=O)O[C@@H]1CC2[C@@H](CCC3Cc4nc5c(nc4C[C@@]32C)CC2CC[C@@H]3C(CC[C@@]4(C)C3CC[C@@H]4C(C)CCCC(C)C)[C@@]2(C)C5)C2C[C@@H]3OC4(CCC(C)CO4)C(C)[C@@H]3[C@]21C (stereo partly drawn) , thanks.
-- reply > 100 µM (inactive)
